target.of.assay: UniProt:Q9Y5Y4
Sequence (Q9Y5Y4 1-395): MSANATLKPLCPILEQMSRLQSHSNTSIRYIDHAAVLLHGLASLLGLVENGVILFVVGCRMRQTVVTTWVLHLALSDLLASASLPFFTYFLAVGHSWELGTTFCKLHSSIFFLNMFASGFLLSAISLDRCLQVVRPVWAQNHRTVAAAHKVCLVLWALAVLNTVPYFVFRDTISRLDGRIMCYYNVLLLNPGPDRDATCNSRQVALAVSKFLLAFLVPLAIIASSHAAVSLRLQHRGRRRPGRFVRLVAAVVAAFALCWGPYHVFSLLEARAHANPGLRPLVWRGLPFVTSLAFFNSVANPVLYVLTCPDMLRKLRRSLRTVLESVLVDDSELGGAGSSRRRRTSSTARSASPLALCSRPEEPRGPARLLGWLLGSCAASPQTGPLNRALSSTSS
compounds and their reported IC50

| compound | IC50 |
| --- | --- |
| CCN(Cc1cc(F)ccc1-c1cn(CC(=O)O)c2ccccc12)C(=O)C1CC1 [Example 37] | 11 nM |
| CCN(Cc1cc(F)ccc1-c1nn(CC(=O)O)c2cccc(Cl)c12)C(=O)C1CC1 [Example 4] | 9 nM |
| CCN(Cc1cc(C(F)(F)F)ccc1-c1nn(CC(=O)O)c2ccc(F)c(Cl)c12)C(=O)C1CC1 [Example 17] | 10 nM |
| CCN(Cc1cc(C(F)(F)F)ccc1-c1nn(CC(=O)O)c2ccc(Cl)cc12)C(=O)C1CC1 [Example 5] | 16 nM |

---

Quick reference for pIC50 among some molecules
target.of.assay: CRTh2 receptor (Homo sapiens, UniProt Q9Y5Y4)
Sequence (Q9Y5Y4 1-395): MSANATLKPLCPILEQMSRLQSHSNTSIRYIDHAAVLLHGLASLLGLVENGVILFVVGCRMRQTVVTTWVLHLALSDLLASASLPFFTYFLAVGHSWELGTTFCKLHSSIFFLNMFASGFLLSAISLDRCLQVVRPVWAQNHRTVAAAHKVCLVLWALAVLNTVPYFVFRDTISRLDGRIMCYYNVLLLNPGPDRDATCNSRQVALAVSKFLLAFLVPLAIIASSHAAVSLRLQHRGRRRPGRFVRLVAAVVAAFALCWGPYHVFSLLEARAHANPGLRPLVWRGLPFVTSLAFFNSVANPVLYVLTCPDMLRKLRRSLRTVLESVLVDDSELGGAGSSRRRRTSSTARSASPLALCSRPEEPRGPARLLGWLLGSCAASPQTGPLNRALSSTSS
pIC50: −log10 of the molar value.

| molecule | pIC50 |
| --- | --- |
| CCN(Cc1cc(C(F)(F)F)ccc1-c1nn(C(C)C(=O)O)c2cccc(Cl)c12)C(=O)C1CC1 (centres unmarked) | 7.89 |
| CCN(Cc1cc(F)ccc1-c1nn(CC(=O)O)c2ccc(C(F)(F)F)cc12)C(=O)C1CC1 | 8.15 |
| CCN(Cc1cc(C(F)(F)F)ccc1-c1nn(CC(=O)O)c2cccc(C)c12)C(=O)C1CC1 | 7.77 |
| CCN(Cc1cc(C(F)(F)F)ccc1-c1nn(CC(=O)O)c2ccc(C)cc12)C(=O)C1CC1 | 8.10 |
| CCN(Cc1cc(F)ccc1-c1cn(CC(=O)O)c2ccc(F)cc12)C(=O)C1CC1 | 8.22 |
| CCN(Cc1cc(C(F)(F)F)ccc1-c1nn(CC(=O)O)c2cccc(Cl)c12)C(=O)C1CC1 | 8.22 |
| CCN(Cc1cc(C(F)(F)F)ccc1-c1nn(CC(=O)O)c2ccc(Cl)c(F)c12)C(=O)C1CC1 | 7.85 |
| CCN(Cc1cc(C(F)(F)F)ccc1-c1nn(CC(=O)O)c2cccc(Cl)c12)C(=O)NCc1ccccc1 | 8.10 |

Origin of measurements: patent EP2548863A1
